Numbers sourced from ChEMBL document CHEMBL5325470.

Hi there, I'd appreciate the recorded IC50 for every entry that follows.
# System: HCT-116
# measurement protocol: Antiproliferative activity against human HCT-116 cells incubated for 72 hrs by MTT assay
# Assay type: functional, cell-based
# assay conditions: HCT-116, 72 h

Please list IC50 recorded for the compound Cc1cc(C)c(CNC(=O)c2cc(-c3ccc(N4CCN(C(=O)C[C@@H]5N=C(c6ccc(Cl)cc6)c6c(sc(C)c6C)-n6c(C)nnc65)CC4)nc3)cc3c2cnn3C)c(=O)[nH]1
> 20 µM

Please list IC50 recorded for the compound Cc1cc(C)c(CNC(=O)c2cc(NCCCNC(=O)C[C@@H]3N=C(c4ccc(Cl)cc4)c4c(sc(C)c4C)-n4c(C)nnc43)cc3c2cnn3C(C)C)c(=O)[nH]1
> 20 µM

Turning now to a further compound:
Please list IC50 recorded for the compound CCC(C)n1ncc2c(C(=O)NCc3c(C)cc(C)[nH]c3=O)cc(-c3ccc(N4CCN(C(=O)C[C@@H]5N=C(c6ccc(Cl)cc6)c6c(sc(C)c6C)-n6c(C)nnc65)CC4)nc3)cc21 (stereo partly drawn)
> 20 µM

----------
# System: A549
# measurement protocol: Antiproliferative activity against human A549 cells incubated for 72 hrs by MTT assay
# Type: functional, cell-based
# assay conditions: A549, 72 h
Hi there, I'd appreciate the recorded IC50 for every entry that follows.

Provide each entry's IC50 from the list below.
1. Cc1cc(C)c(CNC(=O)c2cc(-c3ccc(N4CCN(C(=O)C[C@@H]5N=C(c6ccc(Cl)cc6)c6c(sc(C)c6C)-n6c(C)nnc65)CC4)cc3)cc3c2cnn3C(C)C)c(=O)[nH]1
2. Cc1cc(C)c(CNC(=O)c2cc(-c3ccc(NC(=O)CCCNC(=O)C[C@@H]4N=C(c5ccc(Cl)cc5)c5c(sc(C)c5C)-n5c(C)nnc54)cc3)cc3c2cnn3C(C)C)c(=O)[nH]1
3. Cc1cc(C)c(CNC(=O)c2cc(-c3ccc(NC(=O)CCNC(=O)C[C@@H]4N=C(c5ccc(Cl)cc5)c5c(sc(C)c5C)-n5c(C)nnc54)cc3)cc3c2cnn3C(C)C)c(=O)[nH]1
4. Cc1cc(C)c(CNC(=O)c2cc(NCCCCCCNC(=O)C[C@@H]3N=C(c4ccc(Cl)cc4)c4c(sc(C)c4C)-n4c(C)nnc43)cc3c2cnn3C(C)C)c(=O)[nH]1
5. Cc1cc(C)c(CNC(=O)c2cc(-c3ccc(NC(=O)CNC(=O)C[C@@H]4N=C(c5ccc(Cl)cc5)c5c(sc(C)c5C)-n5c(C)nnc54)cc3)cc3c2cnn3C(C)C)c(=O)[nH]1

> 20 µM
> 20 µM
> 20 µM
9.2 µM
> 20 µM

----------
Hi there, I'd appreciate the recorded pIC50 for every entry that follows.
# System: A549
# measurement protocol: Antiproliferative activity against human A549 cells incubated for 72 hrs by MTT assay
# Format: functional, cell-based
# assay conditions: A549, 72 h
pIC50: −log10 of the molar value.

Please list pIC50 recorded for the compound Cc1cc(C)c(CNC(=O)c2cc(-c3ccc(NC(=O)C[C@@H]4N=C(c5ccc(Cl)cc5)c5c(sc(C)c5C)-n5c(C)nnc54)cc3)cc3c2cnn3C(C)C)c(=O)[nH]1
< 4.70

Please list pIC50 recorded for the compound Cc1cc(C)c(CNC(=O)c2cc(NC3CCN(C(=O)C[C@@H]4N=C(c5ccc(Cl)cc5)c5c(sc(C)c5C)-n5c(C)nnc54)CC3)cc3c2cnn3C(C)C)c(=O)[nH]1
< 4.70

Turning now to a further compound:
Please list pIC50 recorded for the compound Cc1cc(C)c(CNC(=O)c2cc(-c3ccc(NC(=O)CCCCNC(=O)C[C@@H]4N=C(c5ccc(Cl)cc5)c5c(sc(C)c5C)-n5c(C)nnc54)cc3)cc3c2cnn3C(C)C)c(=O)[nH]1
< 4.70
